Hey, just so you know, these numbers are from the supplement of paper PMC9170038.

System: MS2 coat protein
assay.remarks: apparent KD of MS2 coat protein; designed switch direction (-1 OFF switch, 1 ON switch): -1; higher = weaker reporter binding
reported.conditions: input ligand: FMN 200 uM
Each entry below carries its recorded apparent KD of MS2 coat protein.

| construct.sequence | apparent KD of MS2 coat protein / nM |
| --- | --- |
| UUCCUCAGCUAGGAUAUCAAGGCACCACCCUAAUGAGAAGGAGCAACAUGAGGAUCACCCAUGUGGGUUUCUUA [Aterre] (Eterna round: R97, puzzle: Exclusion 6) | 143 |
| CAGUACUGAGGAUAUACAUGAGGAUCACCCAUGUGUUCCAGCUAGGAAACUAGCAAUAGUAGAAGGCAGUACUG [salish99_ex3_r3_090x] (Eterna round: R96, puzzle: Exclusion 3) | 417 |
| AAGAAGCUAGGAUAUACAUGAGGAUCACCCAUGUCUCCAUGGUUGACGAGUUCCGCACGUAGAAGGAGCAAAAC [Aerdidima] (Eterna round: R97, puzzle: Exclusion 3) | 225 |
| GUGCUAUAGGAAGGAUAUACUUCAUUAUUUAGACAUGAGGAUCACCCAUGUAACCUUAUGUAUGUGUAGAAGGUCCAUAGCUUA (Eterna round: R96, puzzle: Exclusion NG 2) | 93.2 |
| AAGAGUAGAGGAUAUUGUUUAUGGCACAUGAGGAUCACCCAUGUAGCGAGAGUGGUGCCACAAGAAGGUUGCAUGA [Eternabot (L2) Solution 71] (Eterna round: R97, puzzle: Exclusion 5) | 42.3 |

----------
System: K4 kissing-loop RNA reporter;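 further: bound reporter read as fluorescence of individual clusters on recovered sequencing chips by microscopy, with normalized cluster intensities fitted with a binding model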
assay.remarks: apparent KD of K4 kissing-loop reporter; higher = weaker reporter binding
reported.conditions: Eterna round: R107; input ligand: arginine 13.2 mM

| construct.sequence | u | apparent KD of K4 kissing-loop reporter |
| --- | --- | --- |
| UGAUAGGACAGAAGGAGCGGUAGUGAUGUUGCCAAAAGGGUAAGGUGUCAAAAGACACCCUACCAGGUAGGUCGCUGUCCUAUCU | µM | 0.0932 |
| UGUCUGAUGGAAACAUCGGACUUUACUGAUACCAGUAUCGAUAGAUACCCUUGGCAGCAGAAUCAGUAAUAACGAGUGAUGUUCG [Ex Theophylline A K4 3] | µM | 0.28 |
| AAGGGCUAGGCGGCCGCCACUGGUCGUGUACACAUACGAGCCAGUGAUGUUGGUAUUGUGUGCGGCAGGACCGGGCCUAGCCGAA [Exclusion - Tryptophan B (Freestyle 25)] | µM | 0.303 |
| GGCCGGAAGGCGGCCGCCACUCAGUGAUGUUGUGUGAAAGAAAAGAAAAGAAGAAAGAAAAGAAAGAGGACCGGGCCAAACGGCC | µM | 0.224 |
| UGGAGUUGACGAAGAGUCAACUCCUGAGAUACCAGUGACGAAAGUCACCCUUGGCAGCUCUCUGCCAGUGAUGUUGGUUUAUAAG [#07 K4 Theophylline A Same State] | µM | 0.0894 |

----------
This listing pairs sequences with measured apparent KD of MS2 coat protein.
System: MS2 coat protein
assay.remarks: apparent KD of MS2 coat protein, switch ON state; designed switch direction (-1 OFF switch, 1 ON switch): -1; higher = weaker reporter binding
reported.conditions: FMN input: 0 or 200 uM; Eterna round: R93 (includes R88 designs)

| construct.sequence | apparent KD of MS2 coat protein |
| --- | --- |
| AAAAAGGCAGGAUAUACAUGAGGAUCACCCAUGUUAAAAAAAAAAAAAAAAAAAAAGUGUAGAAGGGCCAAAAA [Default title] | 37.4 nM |
| AGCAAACAUGAGGAUCACCCAUGUGAGGAUAUGAACGAAAAUAAAUAAAAAUAAAAGUUCAGAAGGUACGAGCA [66%, Wbt, 27] | 27.7 nM |
| ACCUCACAUGAGGAUCACCCAUGUUAGGAUAUGCCCGGCAGGUUCUGACCUGCCUAAAGCAGAAGGAACGUGCG [Beusus] | 17.4 nM |
| AAGUGGGCAGGAUAUACAUGAGGAUCACCCAUGUAAAGAAAAGAAAGAUCCGAAGAAAGUAGAAGGGCCUGCAA [Mod 1 of Ex3 sub 3, by Tesla's Dusciple Round 1] | 144 nM |
| AAAAAACAAGGAUAUACAAAAAUAAAAAGAAUAAAGUGAAAACAUGAGGAUCACCCAUGUAGAAGGUGUAAAAA [Default title] | 67 nM |
| AAAGGACGAGGAUAUACAUGAGGAUCACCCAUGUAAAAAGCGUAGCAAAAGAGCUUAUGUAGAAGGCGUCCAAA [Meechl Ex3 2 R2 v4] | 20 nM |
| ACCUGACAUGAGGAUCACCCAUGUGAGGAUAUGUACAUCAGGAAAAAAAAACUGAUGUACAGAAGGCACAAGGG [Amethyst 49] | 23.1 nM |
| AAGAAGCAAGGAUAUACAUGAGGAUCACCCAUGUAAAAGAAAGAAAAGGGAAAGAAAAGUAGAAGGUGCAAAGA [Ruby 69] | 43.6 nM |
